The reported measurements were obtained from ChEMBL document CHEMBL1255415.

# MIC50 per entry
# Tested on: Klebsiella pneumoniae
# test_description: Antimicrobial activity against blaKPC-possessing Klebsiella pneumoniae isolates by agar dilution method
# Format: functional
The response must be a number in µg/mL with no trailing unit.

compound=CO/N=C(\C(=O)N[C@@H]1C(=O)N2C(C(=O)O)=C(COC(C)=O)CS[C@H]12)c1csc(N)n1 readout_units=µg/mL experimental_value=64

Kindly indicate its recorded MIC50. Item: CO/N=C(\C(=O)N[C@@H]1C(=O)N2C(C(=O)[O-])=C(C[N+]3(C)CCCC3)CS[C@H]12)c1csc(N)n1 [CEFEPIME]
32
